This collection of values is drawn from patent US20250230155A1.

# SYSTEM NAME: human mAChR M4 (Homo sapiens)
# Construct: expressed in transfected cells
# Sequence (P08173 whole entry): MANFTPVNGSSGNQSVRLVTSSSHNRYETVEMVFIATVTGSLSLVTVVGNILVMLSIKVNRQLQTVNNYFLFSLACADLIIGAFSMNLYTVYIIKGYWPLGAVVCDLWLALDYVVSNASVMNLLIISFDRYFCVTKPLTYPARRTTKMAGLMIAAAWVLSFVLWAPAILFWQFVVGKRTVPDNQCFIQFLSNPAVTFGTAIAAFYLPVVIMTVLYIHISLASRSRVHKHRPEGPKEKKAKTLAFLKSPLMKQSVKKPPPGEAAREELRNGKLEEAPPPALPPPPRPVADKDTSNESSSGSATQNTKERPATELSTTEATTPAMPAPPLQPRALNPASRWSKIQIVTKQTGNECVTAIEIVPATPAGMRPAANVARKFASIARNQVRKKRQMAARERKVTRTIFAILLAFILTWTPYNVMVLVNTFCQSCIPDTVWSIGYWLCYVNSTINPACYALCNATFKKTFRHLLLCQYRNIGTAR
# ASSAY DETAILS: mAChR M4 cell-based functional assay (calcium mobilization, CHO-K1 hM4-Gqi5 cells)
# STUDY CONDITIONS: positive allosteric modulator activity, increase in the EC20 acetylcholine response, CHO-K1 hM4-Gqi5 cells; read-out: Human M4 EC50
REPORTED METRIC: EC50 (nM)
# unit: nM | format: bare number

The cases that follow already have their EC50 on record.
Lab note: Cc1cc(C(=O)N2CC(C(C)(C)O)C2)nnc1N1CCc2ncc(N3CCCn4nccc43)cc2C1 gave EC50 of 53

Lab note: Cc1cc(C(=O)N2CCC2)nnc1N1CCc2ncc(-n3cccn3)cc2C1 gave EC50 of 241

Lab note: Cc1cnccc1CNC(=O)c1cnc(N2CCc3ncc(C(F)(F)F)cc3C2)c(C)c1 gave EC50 of 170

Lab note: Cc1c(C#N)nnc(N2CCc3ncc(Nc4cc(Cl)cnc4F)cc3C2)c1C gave EC50 of 157

Lab note: Cc1cc(C(=O)N2CC(c3cccnc3)C2)nnc1N1CCc2ncc(N3CCCn4nccc43)cc2C1 gave EC50 of 17

New cases:
Lab note: Cc1cc(C#N)nnc1N1CCc2ncc(N3CC(C)Cn4nccc43)cc2C1 (stereo not shown) gave EC50 of 384

Lab note: Cc1cc(C(=O)N2CC(C)(O)C2)nnc1N1CCc2ncc(N3CCO[C@H](C)C3)cc2C1 gave EC50 of 268

Lab note: Cc1cc(C#N)cnc1N1CCc2ncc(-c3cnn(CC(F)(F)F)c3)cc2C1 gave EC50 of 188

Lab note: Cc1cc(C#N)nnc1N1CCc2ncc(Oc3ccc(F)cc3F)cc2C1 gave EC50 of 297
